Measured MIC, listed per entry.
- Test system: Acanthamoeba polyphaga
- Assay summary: Anti-amoebic activity against Acanthamoeba polyphaga ATCC 30461 assessed as inhibition of amoebic growth incubated for 48 hrs by resazurin dye based microtiter plate analysis
- Format: functional
Assay readout: MIC (µM)

- Smiles entry: "C[C@@H](c1ncncc1F)[C@](O)(Cn1cncn1)c1ccc(F)cc1F"
  Target system: "Acanthamoeba polyphaga"
  Assay readout: "MIC"
  Number: 0.75
- Smiles entry: "O[C@@](Cn1cnnn1)(c1ccc(F)cc1F)C(F)(F)c1ccc(-c2ccc(OCC(F)(F)F)cc2)cn1"
  Target system: "Acanthamoeba polyphaga"
  Assay readout: "MIC"
  Number: 0.114
- Smiles entry: "N#Cc1ccc(COc2ccc(C#Cc3ccc(C(F)(F)[C@](O)(Cn4cnnn4)c4ccc(F)cc4F)nc3)cc2)cc1"
  Target system: "Acanthamoeba polyphaga"
  Assay readout: "MIC"
  Number: 0.425

* * *

Below is a list of entries, each paired with its recorded pIC50 value.
- Assay summary: Catalytic inhibition of Acanthamoeba castellanii CYP51 expressed in Escherichia coli HMS-174 (DE3) cells assessed as inhibition of substrate induced 14alpha-demthylation using obtusifoliol as substrate incubated for 1 hr in presence of NADPH-CYP450 reductase by RP-HPLC analysis
pIC50: −log10 of the molar value.
Assay readout: pIC50

- Smiles entry: "O=C([C@@H](c1ccc(Cl)cc1)c1cccnc1)N1CCN(c2ccc(C(F)(F)F)cc2)CC1"
  Assay readout: "pIC50"
  Number: 5.26
- Smiles entry: "N#Cc1ccc(COc2ccc(C#Cc3ccc(C(F)(F)[C@](O)(Cn4cnnn4)c4ccc(F)cc4F)nc3)cc2)cc1"
  Assay readout: "pIC50"
  Number: 6.60
- Smiles entry: "FC(F)(F)c1ccc(N(c2cccnc2)C2CCN(c3ccc(C(F)(F)F)cn3)CC2)cc1"
  Assay readout: "pIC50"
  Number: 5.89
- Smiles entry: "C[C@@H](c1ncncc1F)[C@](O)(Cn1cncn1)c1ccc(F)cc1F"
  Assay readout: "pIC50"
  Number: 6.35
